All values here come from patent US20100261620A1.

Form field: kon (one value per entry).
measured target: IL-13 (Homo sapiens (Human), UniProt P35225 35-146, limits assumed)
Sequence (P35225 35-146 limits assumed): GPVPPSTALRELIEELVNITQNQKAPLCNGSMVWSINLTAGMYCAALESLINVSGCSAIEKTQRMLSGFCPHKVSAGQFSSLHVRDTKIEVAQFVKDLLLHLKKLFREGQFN
procedure details: Biacore
Give just the number in M⁻¹ s⁻¹; leave the unit off.

{"columns": ["binder", "kon, M⁻¹ s⁻¹"],
 "data": [
  ["M482 (antibody, V domains shown, anti-IL-13, human IgG1; printed changes are the same as for M470) VH: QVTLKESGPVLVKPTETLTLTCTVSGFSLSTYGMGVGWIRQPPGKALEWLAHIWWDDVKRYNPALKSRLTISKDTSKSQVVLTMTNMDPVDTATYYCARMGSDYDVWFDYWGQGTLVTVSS VL: EIVLTQSPATLSLSPGERATLSCRASKSISKYLAWYQQKPGQAPRLLIYSGSTLQSGIPARFSGSGSGTDFTLTISSLEPEDFAVYYCQQHLDSPYTFGQGTKLEIK", "1.02e+06"]
]}

Next binder, please.
// query kon value for entry M480 (antibody, V domains shown) VH: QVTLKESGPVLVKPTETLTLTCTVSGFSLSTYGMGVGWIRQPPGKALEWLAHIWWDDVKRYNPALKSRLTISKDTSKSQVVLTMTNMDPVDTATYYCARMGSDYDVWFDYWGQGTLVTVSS VL: EIVLTQSPATLSLSPGERATLSCRASKSISKYLAWYQQKPGQAPRLLIYSGSTLQSGIPARFSGSGSGTDFTLTISSLEPEDFAVYYCQQQDSPYTFGQGTKLEIK
1.86e+06
